- experimental_details: Octanol-water partition coefficient (log D) of radiolabelled ligands
- Assay type: physicochemical
- test_parameters: pH 7.4, 68Ga-natF-L; n-octanol/PBS pH 7.4; n = 6
property: logD
// return a plain number; no unit text

[ask] Check the records and state logD for CC(C)(C)[Si](F)(c1ccc(C(=O)NC[C@@H](C(=O)N[C@H](CCCCNC(=O)CCCCCCC(=O)NCCCC[C@H](NC(=O)N[C@@H](CCC(=O)O)C(=O)O)C(=O)O)C(=O)O)n2cc(CNC(=O)CCP(=O)(O)CN3CCN(CP(=O)(O)CCC(=O)O)CCN(CP(=O)(O)CCC(=O)O)CC3)nn2)cc1)C(C)(C)C [ligand 6, PSMA-SIFA2]
[reply] -3

[ask] Check the records and state logD for CC(C)(C)[Si](F)(c1ccc(C(=O)NC[C@@H](C(=O)N[C@H](CCCCNC(=O)CCC(=O)NCCC[C@@H](NC(=O)CC[C@H](NC(=O)N[C@@H](CCC(=O)O)C(=O)O)C(=O)O)C(=O)O)C(=O)O)n2cc(CNC(=O)CCP(=O)(O)CN3CCN(CP(=O)(O)CCC(=O)O)CCN(CP(=O)(O)CCC(=O)O)CC3)nn2)cc1)C(C)(C)C [ligand 9, PSMA-SIFA5]
[reply] -3.26

[ask] Check the records and state logD for CC(C)(C)[Si](F)(c1ccc(C(=O)NC[C@@H](NC(=O)CCC(C(=O)O)N2CCN(CC(=O)O)CCN(CC(=O)O)CCN(CC(=O)O)CC2)C(=O)N[C@H](CCCCNC(=O)CCCCCCC(=O)NCCCC[C@H](NC(=O)N[C@@H](CCC(=O)O)C(=O)O)C(=O)O)C(=O)O)cc1)C(C)(C)C (stereo partly shown) [ligand 5, PSMA-SIFA1]
[reply] -2.75

[ask] Check the records and state logD for CC(C)(C)[Si](F)(c1ccc(C(=O)N[C@H](CNC(=O)CCC(C(=O)O)N2CCN(CC(=O)O)CCN(CC(=O)O)CCN(CC(=O)O)CC2)C(=O)N[C@H](CCCCNC(=O)CCC(=O)NCCC[C@@H](NC(=O)CC[C@H](NC(=O)N[C@@H](CCC(=O)O)C(=O)O)C(=O)O)C(=O)O)C(=O)O)cc1)C(C)(C)C (stereo partly shown) [ligand 8, PSMA-SIFA4]
[reply] -2.59
